- System: 16HBE41o-cells
- Type: cell-based
- conditions: cells treated with 200 μM HOCl for 60 min in PBS; viability at 24 hours, MTT; read-out: EC50 of protection against HOCl-mediated cell death
measurement-type: pEC50
# pEC50 = -log10(concentration in molar units)

Which pEC50 is listed for N=C(N)NCCC[C@@H](N)C(=O)N[C@@H](Cc1c[nH]c(=S)[nH]1)C(=O)N[C@@H](CCCCN)C(=O)N[C@@H](Cc1ccccc1)C(N)=O ?
4.30
